tested on: Clostridium sporogenes; test: Antibacterial activity against Clostridium sporogenes ATCC 19404 after 24 hrs by microbroth double dilution method; assay type: functional; conditions: ATCC 19404, 24 h
Property measured: MIC

Observe how each entry below is paired with its result.
sample_smiles=CC1=CCC[C@H]2[C@](C)(CC3=CC(=O)C=C(N[C@@H](Cc4ccccc4)C(=O)O)C3=O)[C@@H](C)CC[C@]12C test_target="Clostridium sporogenes" test_value="82.1 µM"
sample_smiles=CC(C)(C)C1=CC(=O)C=C(N[C@@H](Cc2c[nH]c3ccccc23)C(=O)O)C1=O test_target="Clostridium sporogenes" test_value="1710 µM"

Read the next record carefully.
Entry CC1=CCC[C@H]2[C@](C)(CC3=CC(=O)C=C(NCCC(=O)O)C3=O)[C@@H](C)CC[C@]12C — recorded MIC = 393 µM

* * *

# MIC per entry
test system: Candida albicans; test: Antifungal activity against Candida albicans ATCC 10231 after 24 hrs by microbroth double dilution method; type: functional; settings: ATCC 10231, 24 h
Write it as a number; the unit µM goes unstated.

Observe how each entry below is paired with its result.
sample_smiles=CC1=CCC[C@H]2[C@](C)(CC3=CC(=O)C(N4CCC[C@H]4C(=O)O)=CC3=O)[C@@H](C)CC[C@]12C property_measured=MIC test_value=23
sample_smiles=CC(C)(C)C1=CC(=O)C=C(NCCC(=O)O)C1=O property_measured=MIC test_value=626
sample_smiles=CC1=CCC[C@H]2[C@](C)(CC3=CC(=O)C=C(NCCC(=O)O)C3=O)[C@@H](C)CC[C@]12C property_measured=MIC test_value=195

Entry CC1=CCC[C@H]2[C@](C)(CC3=CC(=O)C=C(N[C@@H](C)C(=O)O)C3=O)[C@@H](C)CC[C@]12C under Candida albicans had MIC of 6.13

* * *

# log10(LC50) per entry
system: Artemia salina; experiment: Cytotoxicity in Brine shrimp assessed as nauplii mortality after 24 hrs; format: organism-based; details: in vivo
Quick note: numbers are log10 of LC50, with ppm as the unit.

sample_smiles=CC1=CCC[C@H]2[C@](C)(CC3=CC(=O)C=C(N[C@@H](C)C(=O)O)C3=O)[C@@H](C)CC[C@]12C test_target="Artemia salina" test_value=2.11
sample_smiles=CC1=CCC[C@H]2[C@](C)(CC3=CC(=O)C(N4CCC[C@H]4C(=O)O)=CC3=O)[C@@H](C)CC[C@]12C test_target="Artemia salina" test_value=2.85
sample_smiles=CC1=CCC[C@H]2[C@](C)(CC3=CC(=O)C=C(N[C@@H](C(=O)O)C(C)C)C3=O)[C@@H](C)CC[C@]12C test_target="Artemia salina" test_value=1.70
sample_smiles=CC(C)(C)C1=CC(=O)C=C(NCC(=O)O)C1=O test_target="Artemia salina" test_value=2.30

Entry CC(C)(C)C1=CC(=O)C(N2CCC[C@H]2C(=O)O)=CC1=O — recorded log10(LC50) = 2.95

* * *

# MIC per entry
test system: Clostridium sporogenes; assay: Antibacterial activity against Clostridium sporogenes ATCC 19404 after 24 hrs by microbroth double dilution method; format: functional; details: ATCC 19404, 24 h
Write it as a number; the unit µM goes unstated.

Observe how each entry below is paired with its result.
compound=CC1=CCC[C@H]2[C@](C)(CC3=CC(=O)C=C(N[C@@H](C)C(=O)O)C3=O)[C@@H](C)CC[C@]12C property_measured=MIC test_value=195
compound="CC1=CCC[C@H]2[C@](C)(CC3=CC(=O)C=CC3=O)[C@@H](C)CC[C@]12C [AVARONE]" property_measured=MIC test_value=20
compound=CC(C)[C@@H](NC1=CC(=O)C=C(C(C)(C)C)C1=O)C(=O)O property_measured=MIC test_value=2240

Read the next record carefully.
Entry CSCC[C@H](NC1=CC(=O)C=C(C[C@]2(C)[C@@H](C)CC[C@]3(C)C(C)=CCC[C@@H]23)C1=O)C(=O)O — recorded MIC = 170
